# PROCEDURE_SUMMARY: Brain and plasma concentrations in mouse by HPLC/MS/MS after 2.5 mg/kg IV
# Format: in vivo
# TEST_SETTINGS: plasma, iv, 2.5 mg/kg, read-out: Mean Conc. at 2 hr, Plasma
RECORDED_ENDPOINT: concentration at 2 h (ng/mL)

a = CNC(C(=O)Nc1ccc2[nH]ncc2c1)c1cccc(OC)c1 (centres unmarked) [Example 41]
b = CNC(C(=O)Nc1ccc2[nH]ncc2c1)c1ccc(Oc2cccc(OC)c2)cc1 (centres unmarked) [Example 15]
Quick check, higher concentration at 2 h between a and b ? When you have decided, please share the label of that item. b
